test system: Staphylococcus aureus; experiment: Antimicrobial activity against Staphylococcus aureus MTCC 1430 after 24 hr by serial dilution method; assay type: functional
Listing of recorded -logMIC by entry.
assay.metric: -logMIC

> print(dat)
                              smiles.record  numeric.readout
1  CC(C)[C@@H]1CC[C@@H](C)C[C@H]1OC(=O)c1ccccc1[N+](=O)[O-]             1.99
2  CC(C)[C@@H]1CC[C@@H](C)C[C@H]1OC(=O)c1ccccc1Br             2.04
3  COc1ccc(C(=O)O[C@@H]2C[C@H](C)CC[C@H]2C(C)C)cc1             2.01
